- System: Phormia regina
- Assay text: Relative activity against blowfly flight muscle submitochondrial NADH dehydrogenase compared to rotenone
- Experimental setup: Muscle tissue
Threshold-based label: Relative activity under 0.08% gives true (1), Relative activity not under 0.08% gives false (0).

Examples with answers:
> print(dat)
                                chem.smiles       tested.on  group.label
1  C=C(C)[C@H]1CC2=C(Cc3ccc4c(c3C2)O[C@@H]2COc3cc(OC)c(OC)cc3[C@H]2C4=O)O1  Phormia regina    false (0)
2  COc1cc2c(cc1OC)[C@@H]1C(=O)c3ccccc3O[C@@H]1CO2  Phormia regina    false (0)
3  COc1cc2c(cc1OC)[C@@H]1[C@H](O)c3ccc4c(c3O[C@@H]1CO2)Cc1cc(C(C)C)oc1C4  Phormia regina    false (0)

State whether 0.08% exceeds Relative activity recorded for COc1ccc2c(c1)O[C@@H]1COc3ccccc3[C@@H]1C2=O .
true (1)

Okay, and COc1cc2c(cc1OC)[C@@H]1C(=O)c3ccccc3O[C@@H]1CS2 ?
false (0)

Okay, and O=C1c2ccccc2O[C@@H]2CSc3ccccc3[C@H]12 ?
true (1)

Okay, and COc1cc2c(cc1OC)[C@H]1[C@H](O)c3ccc4c(c3O[C@@H]1CO2)Cc1cc(C(C)C)oc1C4 ?
true (1)

Okay, and COc1cc2c(cc1OC)[C@H]1C(=O)c3ccc4c(c3O[C@@H]1CO2)Cc1cc(C(C)C)oc1C4 ?
false (0)
